- Test system: MARK3
- condition-parameters: concentration: 1 μM,replicates: in singlicate; n = 1;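 note: KINOMEscan kinase panel screen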
Quick rule for you: %Inh at 20% or higher means criterion met, lower means criterion not met.

CCN(CC)CCCCNc1ncc2cc(-c3c(Cl)cccc3Cl)c(NC(=O)NC(C)(C)C)nc2n1 = criterion not met

Problem: Could you tell me if the measured %Inh of Nc1nc(Nc2ccccc2)cc(-c2ccc3c(N)n[nH]c3c2)n1 [GSK2225749] reaches 20% or more?
Result: criterion not met

Problem: Could you tell me if the measured %Inh of CCn1c(-c2nonc2N)nc2c(C#CC(C)(C)O)nc(OCCN)cc21.Cl.Cl [GSK902056] reaches 20% or more?
Result: criterion not met

Problem: Could you tell me if the measured %Inh of `C[C@@H](Oc1cc(-c2cnn(C3CCNCC3)c2)cnc1N)c1c(Cl)ccc(F)c1Cl` reaches 20% or more?
Result: criterion met

---

- Test system: MEK4
- Construct: gene MAP2K4
- condition-parameters: concentration: 1 μM,replicates: in singlicate; n = 1
Quick rule for you: %Inh under 30% gets condition met, anything else gets condition not met.

Please review the entries below; each comes with its answer.
CCn1c(-c2nonc2N)nc2c(C#CC(C)(C)O)nc(OCCN)cc21.Cl.Cl [GSK902056] = condition met
Cc1n[nH]c2ccc(-c3cc(OC[C@@H](N)Cc4ccccc4)cnc3-c3ccoc3)cc12.O=C(O)C(F)(F)F.O=C(O)C(F)(F)F [GSK507358] = condition not met
CCN(CC)CCCCNc1ncc2cc(-c3c(Cl)cccc3Cl)c(NC(=O)NC(C)(C)C)nc2n1 = condition met
CCN(CC)CCOc1ccc(Nc2ncc3cc(-c4c(Cl)cccc4Cl)c(=O)n(C)c3n2)cc1 [SB-601273] = condition not met
Cl.Cl.Nc1nc(-c2ccc3c(N)n[nH]c3c2)cc(N2CCCC(NC(=O)c3ccccc3)C2)n1 (stereo not shown) [GSK2286775] = condition met

Please examine the following record next.
Problem: Input `C[C@H]1Oc2cc(cnc2N)-c2c(nn(C)c2C#N)CN(C)C(=O)c2ccc(F)cc21` ; condition: %Inh strictly below 30%. Does it hold?
Result: condition not met

---

- System: PIKFYVE
- condition-parameters: concentration: 1 μM,replicates: in singlicate; n = 1
parameter-measured: %Inh (%)
Numbers only, in %.

CC(C)N1C(=O)Cc2cc(Nc3ncc(C(F)(F)F)c(NCc4cccc(S(C)(=O)=O)c4)n3)ccc21 = 27
Cl.Oc1cc(-c2nc(-c3ccccc3)[nH]c2-c2ccncc2)ccc1Cl = 87
CN(C)CCOc1ccc(-c2cc(-c3c[nH]nc3-c3ccccn3)ccn2)cc1 = 0
Nc1nc(Nc2ccccc2)cc(-c2ccc3c(N)n[nH]c3c2)n1 = 27
O=C(NCCNc1ccnc(NCc2ccc(F)cc2)n1)c1cc2ccccc2s1 = 0
C[C@H]1Oc2cc(cnc2N)-c2c(nn(C)c2C#N)CN(C)C(=O)c2ccc(F)cc21 = 19

// next item, %Inh requested
Problem: Any idea what %Inh was measured for `CCn1c(-c2nonc2N)nc2c(C#CC(C)(C)O)nc(OCCN)cc21.Cl.Cl` ?
Result: 19

---

- Test system: MAP4K4
- condition-parameters: concentration: 1 μM,replicates: in singlicate; n = 1
Please respond with reported %Inh for every item in the list.
One number for each entry, in %.

COc1ccc(C[C@@H](CN)NC(=O)c2cc(Br)c(-c3ccnc4[nH]ccc34)s2)cc1.Cl.Cl [GSK1389063] = 51
Cc1n[nH]c2ccc(-c3cc(OC[C@@H](N)Cc4ccccc4)cnc3-c3ccoc3)cc12.O=C(O)C(F)(F)F.O=C(O)C(F)(F)F [GSK507358] = 98.1
C=CC(=O)Nc1cc2c(Nc3ccc(F)c(Cl)c3)ncnc2cc1OCCCN1CCOCC1 [GW781483] = 3
CNC(=O)c1ccccc1Sc1ccc2c(/C=C/c3ccccn3)n[nH]c2c1 = 20
C[C@H]1Oc2cc(cnc2N)-c2c(nn(C)c2C#N)CN(C)C(=O)c2ccc(F)cc21 = 9
O=C(NCCNc1ccnc(NCc2ccc(F)cc2)n1)c1cc2ccccc2s1 [GSK1379944] = 2

Please give %Inh for each item listed below.
1. Nc1nc(Nc2ccccc2)cc(-c2ccc3c(N)n[nH]c3c2)n1 [GSK2225749]
2. O=C(NCCCN1CCOC1=O)c1cnc(NCc2cc(Cl)ccc2Cl)nc1NC1CCCC1

Result:
1: 28; 2: 15
